metric name: Kd (nM)
The answer is to be given in nM; state only the numeric part.

Noted Kd for CCCCCCC(C)(C)c1ccc([C@@H]2C[C@H](O)CC[C@H]2CCCO)c(O)c1 [[^3H]-CP-55,940] , tested on CB2 receptors (Mus musculus): 3.1

Hello, the source for this data is paper PMC3420821, in case you need it.
